Molecular target: T1, 4H432-AA
T1 chain: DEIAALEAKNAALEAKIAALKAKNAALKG
Test: two-hybrid library CCmax;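 further: natural log of median RNA to DNA barcode read ratio; higher means stronger binding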
Settings: mean of both orientations
observation.type: interaction score

a = DKNAALKAENAALKAEIAALEAEIAALEG [4H3777-AA]
b = DKNAALEAEIAALEAENAALEAKIAALKG [4H3094-AA]
c = DKIAALKAENAALKAEIAALEAKNAALKG [4H2760-AA]
d = DKNAALKAEIAALEAKIAALKAKIAALEG [4H3629-AA]
Request: Give the descending interaction score ranking for the 4 binders listed above. List labels; respect the requested ordering.
Response: b, c, a, d
